B1: ZNF207 (parent)
chain: FPSAGQAQAAVQGPVGTDFKPLNS

Variants of: B1
assay-info: protein stability index of a GFP-peptide fusion (GPS, HEK-293T) (PSI 1-6); higher = more stable;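 note: lentivirally expressed fusions sorted by FACS into six bins by GFP to DsRed ratio, PSI derived from sequencing read proportions per bin multiplied by bin number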
condition-context: c terminus: a fixed tail appended
If the reported protein stability index equals or exceeds 3, assign Met. If not, assign Not met.

# mutation-notation, label-class
records = [
    ("F19G", "Met"),
]

Kindly consider the entry below.
Exam item: Assess whether reported protein stability index for `A10E` sits at 3 or higher.
Marked response: Met
